Reference source: patent US11395857B2

# Lookup of reported tissue uptake at 1 h keyed by entry
Assay: Biodistribution of 177Lu-labeled αMSH analogues in mice bearing B16F10 mouse melanoma
Assay type: in vivo, C57BL/6J mice
Details: male, mouse, testes, iv, total radioactivity; 1 h p.i., C57BL/6J mice, B16F10 melanoma; read-out: Biodistribution, Testes
Reported metric: tissue uptake at 1 h (%ID/g)

INSERT INTO results (compound, reported_result) VALUES
  ('CCCC[C@H](NC(=O)CN1CCC(NC(=O)[C@H](CCCCNC(=O)CN2CCN(CC(=O)O)CCN(CC(=O)O)CCN(CC(=O)O)CC2)NC(=O)[C@H](CCC(=O)O)NC(=O)CCCc2ccc(I)cc2)CC1)C(=O)N[C@H]1CC(=O)NCCCC[C@@H](C(N)=O)N(C)C(=O)[C@H](Cc2c[nH]c3ccccc23)NC(=O)[C@H](CCCNC(=N)N)N(C)C(=O)[C@@H](Cc2ccccc2)NC(=O)[C@H](Cc2c[nH]cn2)NC1=O [^177Lu-labeled CCZ01118, metal not drawn]', 1.07),
  ('CCCC[C@H](NC(=O)CN1CCC(NC(=O)[C@H](CCCCNC(=O)CN2CCN(CC(=O)O)CCN(CC(=O)O)CCN(CC(=O)O)CC2)NC(=O)[C@H](CCC(=O)O)NC(=O)CCCc2ccc(I)cc2)CC1)C(=O)N[C@H]1CC(=O)NCCCC[C@@H](C(N)=O)NC(=O)[C@H](Cc2c[nH]c3ccccc23)NC(=O)[C@H](CCCNC(=N)N)NC(=O)[C@@H](Cc2ccccc2)NC(=O)[C@H](Cc2c[nH]cn2)NC1=O [^177Lu-labeled CCZ01082, metal not drawn]', 1.3),
  ('CCCC[C@H](NC(=O)CN1CCC(NC(=O)CN2CCN(CC(=O)O)CCN(CC(=O)O)CCN(CC(=O)O)CC2)CC1)C(=O)N[C@H]1CC(=O)NCCCC[C@@H](C(N)=O)N(C)C(=O)[C@H](Cc2c[nH]c3ccccc23)N(C)C(=O)[C@H](CCCNC(=N)N)N(C)C(=O)[C@@H](Cc2ccccc2)NC(=O)[C@H](Cc2c[nH]cn2)N(C)C1=O [^177Lu-labeled CCZ01099, metal not drawn]', 0.13);
